Source: ChEMBL document CHEMBL4806968

Each entry below carries its reported inhibition.
# study-target: High affinity nerve growth factor receptor (Homo sapiens)
# assay-method-text: Inhibition of TRKA (unknown origin) at 0.5 uM relative to control

# smiles-entry, inhibition [%]
rows = [
    ("CNC(=O)c1cc(Oc2ccc(NC(=O)c3nc(NC)sc3-c3ccc(F)cc3)cc2)ccn1", 58),
    ("CNC(=O)c1cc(Oc2ccc(NC(=O)c3nc(SC)oc3-c3ccc(F)cc3)cc2F)ccn1", 43),
    ("CNC(=O)c1cc(Oc2ccc(NC(=O)c3n[nH]nc3-c3ccc(F)cc3)cc2)ccn1", 43),
    ("CNC(=O)c1cc(Oc2ccc(NC(=O)c3nc(SC)n(CCN(C)C)c3-c3ccc(F)cc3)cc2)ccn1", 42),
    ("CNC(=O)c1cc(Oc2ccc(NC(=O)c3nc(SC)oc3-c3ccc(F)cc3)cc2)ccn1", 47),
    ("CNC(=O)c1cc(Oc2ccc(NC(=O)c3nc(S(C)(=O)=O)sc3-c3ccc(F)cc3)cc2)ccn1", 36),
]

* * *

# study-target: Tyrosine-protein kinase Mer (Homo sapiens)
# Sequence (whole entry): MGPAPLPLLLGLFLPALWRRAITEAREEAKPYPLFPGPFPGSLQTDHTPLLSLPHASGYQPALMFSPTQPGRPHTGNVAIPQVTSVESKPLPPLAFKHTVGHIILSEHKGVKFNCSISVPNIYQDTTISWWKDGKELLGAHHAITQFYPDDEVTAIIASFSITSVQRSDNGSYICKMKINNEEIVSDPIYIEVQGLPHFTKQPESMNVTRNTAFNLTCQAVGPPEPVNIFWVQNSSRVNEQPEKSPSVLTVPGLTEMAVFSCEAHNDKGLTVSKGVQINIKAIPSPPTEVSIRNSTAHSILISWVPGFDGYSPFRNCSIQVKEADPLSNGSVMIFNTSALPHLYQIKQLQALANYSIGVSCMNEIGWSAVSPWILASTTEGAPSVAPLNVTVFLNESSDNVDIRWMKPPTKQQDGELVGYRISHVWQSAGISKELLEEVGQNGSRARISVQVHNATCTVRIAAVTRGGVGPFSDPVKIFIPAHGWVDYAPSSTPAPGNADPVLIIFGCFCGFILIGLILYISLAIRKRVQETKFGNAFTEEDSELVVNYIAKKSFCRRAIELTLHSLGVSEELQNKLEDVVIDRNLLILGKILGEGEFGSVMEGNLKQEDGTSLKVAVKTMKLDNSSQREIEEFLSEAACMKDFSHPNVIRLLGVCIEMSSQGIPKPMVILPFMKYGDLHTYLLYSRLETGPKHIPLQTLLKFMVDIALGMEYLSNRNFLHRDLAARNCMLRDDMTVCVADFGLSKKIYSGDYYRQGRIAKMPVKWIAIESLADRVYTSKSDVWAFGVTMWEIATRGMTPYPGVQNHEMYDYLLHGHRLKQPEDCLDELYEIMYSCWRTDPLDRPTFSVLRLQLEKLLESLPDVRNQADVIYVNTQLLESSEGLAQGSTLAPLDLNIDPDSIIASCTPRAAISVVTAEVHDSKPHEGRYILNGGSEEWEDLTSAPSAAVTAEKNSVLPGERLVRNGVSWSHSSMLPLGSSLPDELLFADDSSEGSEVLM
# assay-method-text: Inhibition of MER (unknown origin) at 0.5 uM relative to control
Each entry gets label 0 if its inhibition stays under 60%, and label 1 if its inhibition is 60% or above.

# smiles-entry, class-name
rows = [
    ("CNC(=O)c1cc(Oc2ccc(NC(=O)c3nc(SC)oc3-c3ccc(F)cc3)cc2F)ccn1", "label 0"),
    ("CNC(=O)c1cc(Oc2ccc(NC(=O)c3nc(SC)[nH]c3-c3ccc(F)cc3)cc2)ccn1", "label 1"),
    ("CNC(=O)c1cc(Oc2ccc(NC(=O)c3nc(C(F)(F)F)sc3-c3ccc(F)cc3)cc2)ccn1", "label 0"),
    ("CNC(=O)c1cc(Oc2ccc(NC(=O)c3nc(SC)oc3-c3ccc(F)cc3)cc2)ccn1", "label 0"),
]
